Each recorded value in this set is attributed to patent US20130078247A1.

Let's look at some binders and their measured % inhibition.
Biological target: T1, mouse DLL4, full length, overexpressed on CHO or HEK293 cells (mouse, UniProt Q9JI71 27-686)
T1 construct: whole, on cells; also called CHO-mDLL4; CHO-mDII4
T1 sequence (Q9JI71 27-686): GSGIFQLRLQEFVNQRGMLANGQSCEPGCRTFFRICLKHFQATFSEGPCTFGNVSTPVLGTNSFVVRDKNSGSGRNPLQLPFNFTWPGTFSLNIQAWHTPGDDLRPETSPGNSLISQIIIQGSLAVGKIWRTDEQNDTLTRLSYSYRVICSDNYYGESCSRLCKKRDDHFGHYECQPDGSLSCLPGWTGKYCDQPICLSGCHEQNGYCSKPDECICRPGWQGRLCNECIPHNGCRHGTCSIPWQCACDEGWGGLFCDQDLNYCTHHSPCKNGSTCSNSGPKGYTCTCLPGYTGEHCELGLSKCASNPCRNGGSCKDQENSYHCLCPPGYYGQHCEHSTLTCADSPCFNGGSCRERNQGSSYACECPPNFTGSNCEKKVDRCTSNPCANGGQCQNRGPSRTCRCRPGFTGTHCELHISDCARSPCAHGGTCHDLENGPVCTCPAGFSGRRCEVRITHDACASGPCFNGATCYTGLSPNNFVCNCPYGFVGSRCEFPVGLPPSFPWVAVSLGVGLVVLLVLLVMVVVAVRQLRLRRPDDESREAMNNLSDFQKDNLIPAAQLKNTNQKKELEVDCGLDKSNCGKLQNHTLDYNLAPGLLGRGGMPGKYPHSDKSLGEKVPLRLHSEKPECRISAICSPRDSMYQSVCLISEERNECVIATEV
Test: periplasmic extract; FMAT, Notch1/Fc on CHO-mDLL4
Report the value in % with no unit label.

# BINDER, MEASURE_NAME, VALUE_REPORTED
records = [
    ("DLLBII62C11 (VHH, not shown: C-terminal c-myc and His6 tags) VHH: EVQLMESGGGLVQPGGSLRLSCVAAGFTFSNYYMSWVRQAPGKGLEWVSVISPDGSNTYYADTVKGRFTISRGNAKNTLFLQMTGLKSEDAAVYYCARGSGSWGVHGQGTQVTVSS", "% inhibition", 71),
    ("DLLBII101F01 (VHH, also called DLLBII101F1; not shown: C-terminal c-myc and His6 tags) VHH: EVQLVESGGGLVQAGGSLRLSCAASGRTFSNYAMGWFRQAPGKEREFVAAISWSGGDTYYADSVKGRFTISRDNAKNTVCLQMNSLKPEDTAVYYCAASFQSGAAPGANFYDYWGQGTQVTVSS", "% inhibition", 78),
    ("DLLBII112A04 (VHH, also called DLLBII112A4; not shown: C-terminal c-myc and His6 tags) VHH: EVQLVESGGGLVQAGGSLRLSCAAFGRTPYGMGWFRQAPGKEREFVAAITSDGSTNYADSVKGRFTISRDNAKNAVSLQMNSLKPEDTAVYYCTAPYYSDFEGTTTEYDYWGQGTQVTVSS", "% inhibition", 90),
]

So what does the record say about % inhibition for DLLBII58A11 (VHH, not shown: C-terminal c-myc and His6 tags) VHH: EVQLVESGGGLVQAGGSLRLSCTTSERTVSRYSMGWFRQAPGKEREAVATISWSGDSTYYADSVKGRFTISRDNTKNTLYLQIDSLKPEDTAVYYCVAKPNLKYGSYWPPRGYDYWGQGTQVTVSS ? 73
